# measured target: T1, FAM-tagged two-repeat S5-phosphorylated CTD peptide
# T1 chain: YSPTSPSYSPTSPS
# test details: fluorescence anisotropy (FA)
# stated conditions: chain shown with the change; read at the highest titration point, Seb1-CID 500 µM; parent: est. 77; read off a plot

binder	response
Seb1-CID(1-152), Q9UTE3 S22D; K25E (protein) MSGIAEFDGILDSLEHSKTGIDGSEILKLTNLSMENVSENAQFVASVYKYAKRAPVTHKLGALYILDSIVRSFQDGAKKNNESFENPVDASFSGGWCKAAEITDSLVADAIQHAPSAHLPKILKLCDIWEKASTFPPEKLESLRSKLKDAMA	46
Seb1-CID(1-152), Q9UTE3 Y64K (protein) MSGIAEFDGILDSLEHSKTGISGSKILKLTNLSMENVSENAQFVASVYKYAKRAPVTHKLGALKILDSIVRSFQDGAKKNNESFENPVDASFSGGWCKAAEITDSLVADAIQHAPSAHLPKILKLCDIWEKASTFPPEKLESLRSKLKDAMA	40
